molecular target: human serum albumin (HSA) (Homo sapiens); construct: purchased Sigma-Aldrich; test: HSA binding by fluorescence quenching
Sequence (P02768 25-609): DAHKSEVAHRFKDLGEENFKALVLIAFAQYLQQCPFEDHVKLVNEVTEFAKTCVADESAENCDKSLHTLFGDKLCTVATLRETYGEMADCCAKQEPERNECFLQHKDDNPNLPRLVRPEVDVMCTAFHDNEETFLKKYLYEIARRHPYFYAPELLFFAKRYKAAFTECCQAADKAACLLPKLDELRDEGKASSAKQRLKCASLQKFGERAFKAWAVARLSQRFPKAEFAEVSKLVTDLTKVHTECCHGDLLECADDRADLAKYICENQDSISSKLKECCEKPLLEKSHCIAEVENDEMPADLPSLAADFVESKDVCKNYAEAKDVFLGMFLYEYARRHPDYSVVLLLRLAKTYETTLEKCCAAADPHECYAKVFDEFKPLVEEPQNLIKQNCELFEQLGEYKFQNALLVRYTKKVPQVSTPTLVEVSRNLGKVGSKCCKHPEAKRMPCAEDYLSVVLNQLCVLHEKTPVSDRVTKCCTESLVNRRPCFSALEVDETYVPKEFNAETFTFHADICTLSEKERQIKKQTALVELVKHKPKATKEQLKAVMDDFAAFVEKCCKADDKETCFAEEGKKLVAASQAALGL
Recorded endpoint: Kd
Write the numeric value and append its unit.

Incoming: Which value of Kd has been reported for O=C(O[C@@H]1Cc2c(O)cc(O)cc2O[C@@H]1c1cc(O)c(O)c(O)c1)c1cc(O)c(O)c(O)c1 [EGCG, epigallocatechin-3-gallate, reference compound] in the records?
Outgoing: 3.85 µM

====

Recorded endpoint: melting point

Incoming: Which value of melting point has been reported for COc1cc(C(=O)OC2Cc3c(O)cc(O)cc3OC2c2ccc(O)c(O)c2)cc(OC)c1O (stereo not shown) [SYECG] in the records?
Outgoing: 120 to 123 °C

Incoming: Which value of melting point has been reported for `COc1cc(C(=O)O[C@H]2Cc3c(OC(C)=O)cc(OC(C)=O)cc3O[C@@H]2c2ccc(OC(C)=O)c(OC(C)=O)c2)cc(OC)c1OC(C)=O` in the records?
Outgoing: 88 to 93 °C

Incoming: Which value of melting point has been reported for COc1cc(C(=O)OC2Cc3c(O)cc(O)cc3OC2c2ccc(O)c(O)c2)cc(OC)c1O (stereo not shown) [SYCG] in the records?
Outgoing: 110 to 114 °C

Incoming: Which value of melting point has been reported for `COc1cc(C(=O)O[C@H]2Cc3c(O)cc(O)cc3O[C@@H]2c2ccc(O)c(O)c2)cc(OC)c1OC(C)=O` in the records?
Outgoing: 118 to 122 °C
